Data origin: patent US5591714A

# Tested on: Staphylococcus aureus V41
# ASSAY_PROCEDURE: MIC, standard agar-dilution assay
# Assay type: cell-based
ASSAY_READOUT: MIC (µg/mL)

chem_smiles=CCCCCN[C@@]1(C)C[C@H](O[C@H]2[C@H](Oc3c4cc5cc3Oc3ccc(cc3Cl)[C@@H](O)[C@@H](NC(=O)[C@@H](CC(C)C)N(C)CCCCC)C(=O)N[C@@H](CC(N)=O)C(=O)N[C@H]5C(=O)N[C@H]3C(=O)N[C@H](C(=O)N[C@H](C(=O)O)c5cc(O)cc(O)c5-c5cc3ccc5O)[C@H](O[C@H]3C[C@](C)(N)[C@@H](O)[C@H](C)O3)c3ccc(cc3)O4)O[C@H](CO)[C@@H](O)[C@@H]2O)O[C@@H](C)[C@@H]1O result_value=1

----------
# System: Haemophilus influenzae 76
# ASSAY_PROCEDURE: MIC, standard agar-dilution assay
# Format: cell-based
Parameter: MIC. Scope: all listed entries.
ASSAY_READOUT: MIC

compound=CCCCCCCCN[C@@]1(C)C[C@H](O[C@H]2[C@H](Oc3c4cc5cc3Oc3ccc(cc3Cl)[C@@H](O[C@H]3C[C@](C)(N)[C@@H](O)[C@H](C)O3)[C@@H]3NC(=O)[C@H](NC(=O)[C@@H]5NC(=O)[C@H](CC(N)=O)NC(=O)[C@H](NC(=O)[C@@H](CC(C)C)NC)[C@H](O)c5ccc(c(Cl)c5)O4)c4ccc(O)c(c4)-c4c(O)cc(O)cc4[C@@H](C(=O)O)NC3=O)O[C@H](CO)[C@@H](O)[C@@H]2O)O[C@@H](C)[C@@H]1O target_of_assay="Haemophilus influenzae 76" assay_readout=MIC result_value="> 128 µg/mL"
compound=CCCCCN(C)[C@H](CC(C)C)C(=O)N[C@H]1C(=O)N[C@@H](CC(N)=O)C(=O)N[C@H]2C(=O)N[C@H]3C(=O)N[C@H](C(=O)N[C@H](C(=O)O)c4cc(O)cc(O)c4-c4cc3ccc4O)[C@H](O[C@H]3C[C@](C)(N)[C@@H](O)[C@H](C)O3)c3ccc(c(Cl)c3)Oc3cc2cc(c3O[C@@H]2O[C@H](CO)[C@@H](O)[C@H](O)[C@H]2O[C@H]2C[C@](C)(N)[C@@H](O)[C@H](C)O2)Oc2ccc(cc2Cl)[C@H]1O target_of_assay="Haemophilus influenzae 76" assay_readout=MIC result_value="> 128 µg/mL"
compound="CNC(CC(C)C)C(=O)NC1C(=O)NC(CC(N)=O)C(=O)NC2C(=O)NC3C(=O)NC(C(=O)NC(C(=O)O)c4cc(O)cc(O)c4-c4cc3ccc4O)C(OC3CC(C)(NCc4ccccc4)C(O)C(C)O3)c3ccc(c(Cl)c3)Oc3cc2cc(c3O)Oc2ccc(cc2Cl)C1O (stereo not drawn)" target_of_assay="Haemophilus influenzae 76" assay_readout=MIC result_value="> 128 µg/mL"

----------
# Tested on: Streptococcus pyogenes C203
# ASSAY_PROCEDURE: MIC, standard agar-dilution assay
# Assay type: cell-based
# Experimental: The formula I compounds have in vitro and in vivo activity against Gram-positive pathogenic bacteria. The MIC's were determined using a standard agar-dilution assays.
compounds and their reported MIC
ASSAY_READOUT: MIC

compound=CC(C)C[C@H](C(=O)N[C@H]1C(=O)N[C@@H](CC(N)=O)C(=O)N[C@H]2C(=O)N[C@H]3C(=O)N[C@H](C(=O)N[C@H](C(=O)O)c4cc(O)cc(O)c4-c4cc3ccc4O)[C@H](O[C@H]3C[C@](C)(NCc4ccccc4)[C@@H](O)[C@H](C)O3)c3ccc(cc3)Oc3cc2cc(c3O[C@@H]2O[C@H](CO)[C@@H](O)[C@H](O)[C@H]2O[C@H]2C[C@](C)(NCc3ccccc3)[C@@H](O)[C@H](C)O2)Oc2ccc(cc2Cl)[C@H]1O)N(C)Cc1ccccc1 result_value="2 µg/mL"
compound="CNC(CC(C)C)C(=O)NC1C(=O)NC(CC(N)=O)C(=O)NC2C(=O)NC3C(=O)NC(C(=O)NC(C(=O)O)c4cc(O)cc(O)c4-c4cc3ccc4O)C(OC3CC(C)(N)C(O)C(C)O3)c3ccc(c(Cl)c3)Oc3cc2cc(c3OC2OC(CO)C(O)C(O)C2OC2CC(C)(NCc3ccc(F)cc3)C(O)C(C)O2)Oc2ccc(cc2Cl)C1O (stereo not shown)" result_value=".25 µg/mL"
compound="CCCCCCCCOc1ccc(CNC2(C)CC(OC3C(Oc4c5cc6cc4Oc4ccc(cc4Cl)C(OC4CC(C)(N)C(O)C(C)O4)C4NC(=O)C(NC(=O)C6NC(=O)C(CC(N)=O)NC(=O)C(NC(=O)C(CC(C)C)NC)C(O)c6ccc(c(Cl)c6)O5)c5ccc(O)c(c5)-c5c(O)cc(O)cc5C(C(=O)O)NC4=O)OC(CO)C(O)C3O)OC(C)C2O)cc1 (stereo not shown)" result_value="4 µg/mL"
compound=CCCCCCCCN[C@@]1(C)C[C@H](O[C@H]2[C@H](Oc3c4cc5cc3Oc3ccc(cc3Cl)[C@@H](O)[C@@H](NC(=O)[C@@H](CC(C)C)NC)C(=O)N[C@@H](CC(N)=O)C(=O)N[C@H]5C(=O)N[C@H]3C(=O)N[C@H](C(=O)N[C@H](C(=O)O)c5cc(O)cc(O)c5-c5cc3ccc5O)[C@H](O[C@H]3C[C@](C)(N)[C@@H](O)[C@H](C)O3)c3ccc(cc3)O4)O[C@H](CO)[C@@H](O)[C@@H]2O)O[C@@H](C)[C@@H]1O result_value=".25 µg/mL"
compound=CN[C@H](CC(C)C)C(=O)N[C@H]1C(=O)N[C@@H](CC(N)=O)C(=O)N[C@H]2C(=O)N[C@H]3C(=O)N[C@H](C(=O)N[C@H](C(=O)O)c4cc(O)cc(O)c4-c4cc3ccc4O)[C@H](O[C@H]3C[C@](C)(N)[C@@H](O)[C@H](C)O3)c3ccc(cc3)Oc3cc2cc(c3O[C@@H]2O[C@H](CO)[C@@H](O)[C@H](O)[C@H]2O[C@H]2C[C@](C)(NCCc3ccccc3)[C@@H](O)[C@H](C)O2)Oc2ccc(cc2Cl)[C@H]1O result_value=".25 µg/mL"
compound=CCCCCN[C@@]1(C)C[C@H](O[C@H]2[C@H](Oc3c4cc5cc3Oc3ccc(cc3Cl)[C@@H](O[C@H]3C[C@](C)(N)[C@@H](O)[C@H](C)O3)[C@@H]3NC(=O)[C@H](NC(=O)[C@@H]5NC(=O)[C@H](CC(N)=O)NC(=O)[C@H](NC(=O)[C@@H](CC(C)C)NC)[C@H](O)c5ccc(c(Cl)c5)O4)c4ccc(O)c(c4)-c4c(O)cc(O)cc4[C@@H](C(=O)O)NC3=O)O[C@H](CO)[C@@H](O)[C@@H]2O)O[C@@H](C)[C@@H]1O result_value=".5 µg/mL"
compound="CCCCCCC(=O)NC1(C)CC(OC2c3ccc(c(Cl)c3)Oc3cc4cc(c3OC3OC(CO)C(O)C(O)C3OC3CC(C)(N)C(O)C(C)O3)Oc3ccc(cc3Cl)C(O)C(NC(=O)C(CC(C)C)NC)C(=O)NC(CC(N)=O)C(=O)NC4C(=O)NC3C(=O)NC2C(=O)NC(C(=O)O)c2cc(O)cc(O)c2-c2cc3ccc2O)OC(C)C1O (stereo not shown)" result_value="1 µg/mL"
compound=CCCCCN[C@@]1(C)C[C@H](O[C@H]2[C@H](Oc3c4cc5cc3Oc3ccc(cc3Cl)[C@@H](O)[C@@H](NC(=O)[C@@H](CC(C)C)N(C)CCCCC)C(=O)N[C@@H](CC(N)=O)C(=O)N[C@H]5C(=O)N[C@H]3C(=O)N[C@H](C(=O)N[C@H](C(=O)O)c5cc(O)cc(O)c5-c5cc3ccc5O)[C@H](O[C@H]3C[C@](C)(N)[C@@H](O)[C@H](C)O3)c3ccc(cc3)O4)O[C@H](CO)[C@@H](O)[C@@H]2O)O[C@@H](C)[C@@H]1O result_value=".5 µg/mL"
compound=CN[C@H](CC(C)C)C(=O)N[C@H]1C(=O)N[C@@H](CC(N)=O)C(=O)N[C@H]2C(=O)N[C@H]3C(=O)N[C@H](C(=O)N[C@H](C(=O)O)c4cc(O)cc(O)c4-c4cc3ccc4O)[C@H](O[C@H]3C[C@](C)(N)[C@@H](O)[C@H](C)O3)c3ccc(cc3)Oc3cc2cc(c3O[C@@H]2O[C@H](CO)[C@@H](O)[C@H](O)[C@H]2O[C@H]2C[C@](C)(NCc3ccccc3)[C@@H](O)[C@H](C)O2)Oc2ccc(cc2Cl)[C@H]1O result_value=".25 µg/mL"
compound=CN[C@H](CC(C)C)C(=O)N[C@H]1C(=O)N[C@@H](CC(N)=O)C(=O)N[C@H]2C(=O)N[C@H]3C(=O)N[C@H](C(=O)N[C@H](C(=O)O)c4cc(O)cc(O)c4-c4cc3ccc4O)[C@H](O[C@H]3C[C@](C)(N)[C@@H](O)[C@H](C)O3)c3ccc(cc3)Oc3cc2cc(c3O[C@@H]2O[C@H](CO)[C@@H](O)[C@H](O)[C@H]2O[C@H]2C[C@](C)(NCc3ccc(Br)cc3)[C@@H](O)[C@H](C)O2)Oc2ccc(cc2Cl)[C@H]1O result_value=".125 µg/mL"
